Each record here notes measured binding signal.
- system-name: T1, UNK ZnF1-6 (called full-length) (human, UniProt Q9C0B0 30-357)
- T1 sequence: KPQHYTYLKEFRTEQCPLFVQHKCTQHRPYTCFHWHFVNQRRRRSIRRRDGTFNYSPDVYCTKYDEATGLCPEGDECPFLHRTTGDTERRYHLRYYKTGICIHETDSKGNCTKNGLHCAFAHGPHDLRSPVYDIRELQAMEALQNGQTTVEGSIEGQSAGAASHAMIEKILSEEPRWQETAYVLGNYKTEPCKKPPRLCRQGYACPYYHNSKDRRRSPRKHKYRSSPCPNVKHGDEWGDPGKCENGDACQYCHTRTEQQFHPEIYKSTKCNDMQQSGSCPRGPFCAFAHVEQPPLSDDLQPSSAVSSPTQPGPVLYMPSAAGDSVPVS
- assay-text: nsRBNS (natural sequence RNA bind-n-seq); RBNS binding buffer (assumed for nsRBNS): 25 mM Tris pH 7.5, 150 mM KCl, 3 mM MgCl2, 0.01% Triton X-100, 500 ug/ml BSA, 20 U/ml SUPERase-In, 4 C; UNK is unkempt and MSI1 is Musashi-1; names of the RNAs are library labels; protein concentration not given here; high values mean tight binding
The full ranking holds about 5,800 sequences; the median of “enrichment r” is about 0.68, and the highest 2% start at about 11. Not all results are given here.
# output: numeric value plus its unit

Recorded results for 2 binders are shown here.
chr1:225419324:225419425:-|CDS|ENSG00000143815|msi1|FALSE|unique (ssRNA) RNA: GGGAGUUCUACAGUCCGACGAUCUUACAUAGCAACACAGUAUAGCCUUCGUCCAAGAAGAGAAGAAGUCAAAUUAAAAGAAAUAGAUUCUAAGGAAGAAAAAUACGUUGCAAAAGAACUGGCAGUGAGAACCUUUGAAGUGACCAACAGAGGAUUGAGCAUCA ... 0.538 enrichment R
ENSG00000124766:be:win_2101|3pUTR|ENSG00000124766|bound_else_gene|NA|bound_elsewhere_windowed (ssRNA) RNA: GGGAGUUCUACAGUCCGACGAUCUGCCCCCUCUGCAGCCGGAGGAGGAGAUGUUGAGGGGAGGAGGCCAGCCAGUGUGACCGGCGCUAGGAAAUGACCCGAGAACCCCGUUGGAAGCGCAGCAGCGGGAGCUAGGGGCGGGGGCAACAGAGGAUUGAGCAUCA ... 1.41 enrichment R

Here's the next entry for you.
What binding signal value was documented for this binder, chr2:42682433:42682535:+|CDS|ENSG00000057935|unk|FALSE|unique (ssRNA) RNA: GGGAGUUCUACAGUCCGACGAUCUCACGCUAUGGAUACAUUGUAUAGACACAGCUAUGAUUUGAGCAGUGCCAUUAGUGUCUUAGUACCACUCGGAGGACCUGUUUUAUGCAGAGAUGAAAUGGAGGAAUGGUCAGCCUCUGACAACAGAGGAUUGAGCAUCA ?
0.747 enrichment R
